The reported numbers originate from patent US20220010021A1.

The binders listed here are annotated with their Emax.
- assayed system: human FGFR1c + KLB receptor complex on HEK293 iLite FGF21 reporter cells (human, UniProt P11362 22-822; Q86Z14 1-1044)
- Sequence (P11362 22-822, chain 1 of 2): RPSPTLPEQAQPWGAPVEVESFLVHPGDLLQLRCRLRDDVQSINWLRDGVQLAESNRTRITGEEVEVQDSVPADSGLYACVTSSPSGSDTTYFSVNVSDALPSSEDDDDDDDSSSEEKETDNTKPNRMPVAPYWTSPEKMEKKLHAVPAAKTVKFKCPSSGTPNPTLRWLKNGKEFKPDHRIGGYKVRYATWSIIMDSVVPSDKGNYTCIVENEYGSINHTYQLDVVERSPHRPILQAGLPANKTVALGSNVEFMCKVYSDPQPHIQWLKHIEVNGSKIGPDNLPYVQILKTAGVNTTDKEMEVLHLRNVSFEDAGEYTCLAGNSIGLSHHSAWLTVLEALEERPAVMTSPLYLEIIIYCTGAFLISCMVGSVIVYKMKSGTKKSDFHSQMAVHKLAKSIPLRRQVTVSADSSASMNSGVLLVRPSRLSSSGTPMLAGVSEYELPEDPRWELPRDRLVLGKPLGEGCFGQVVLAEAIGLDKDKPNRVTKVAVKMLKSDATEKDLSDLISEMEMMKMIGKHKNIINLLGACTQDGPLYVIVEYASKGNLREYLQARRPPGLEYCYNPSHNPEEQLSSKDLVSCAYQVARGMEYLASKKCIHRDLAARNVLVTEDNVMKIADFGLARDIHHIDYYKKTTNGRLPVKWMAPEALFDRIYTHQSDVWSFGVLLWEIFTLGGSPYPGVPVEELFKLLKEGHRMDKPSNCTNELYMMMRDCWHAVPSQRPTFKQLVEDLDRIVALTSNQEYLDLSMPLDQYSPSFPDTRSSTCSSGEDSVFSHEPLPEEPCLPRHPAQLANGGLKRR
- Sequence (Q86Z14 whole entry, chain 2 of 2): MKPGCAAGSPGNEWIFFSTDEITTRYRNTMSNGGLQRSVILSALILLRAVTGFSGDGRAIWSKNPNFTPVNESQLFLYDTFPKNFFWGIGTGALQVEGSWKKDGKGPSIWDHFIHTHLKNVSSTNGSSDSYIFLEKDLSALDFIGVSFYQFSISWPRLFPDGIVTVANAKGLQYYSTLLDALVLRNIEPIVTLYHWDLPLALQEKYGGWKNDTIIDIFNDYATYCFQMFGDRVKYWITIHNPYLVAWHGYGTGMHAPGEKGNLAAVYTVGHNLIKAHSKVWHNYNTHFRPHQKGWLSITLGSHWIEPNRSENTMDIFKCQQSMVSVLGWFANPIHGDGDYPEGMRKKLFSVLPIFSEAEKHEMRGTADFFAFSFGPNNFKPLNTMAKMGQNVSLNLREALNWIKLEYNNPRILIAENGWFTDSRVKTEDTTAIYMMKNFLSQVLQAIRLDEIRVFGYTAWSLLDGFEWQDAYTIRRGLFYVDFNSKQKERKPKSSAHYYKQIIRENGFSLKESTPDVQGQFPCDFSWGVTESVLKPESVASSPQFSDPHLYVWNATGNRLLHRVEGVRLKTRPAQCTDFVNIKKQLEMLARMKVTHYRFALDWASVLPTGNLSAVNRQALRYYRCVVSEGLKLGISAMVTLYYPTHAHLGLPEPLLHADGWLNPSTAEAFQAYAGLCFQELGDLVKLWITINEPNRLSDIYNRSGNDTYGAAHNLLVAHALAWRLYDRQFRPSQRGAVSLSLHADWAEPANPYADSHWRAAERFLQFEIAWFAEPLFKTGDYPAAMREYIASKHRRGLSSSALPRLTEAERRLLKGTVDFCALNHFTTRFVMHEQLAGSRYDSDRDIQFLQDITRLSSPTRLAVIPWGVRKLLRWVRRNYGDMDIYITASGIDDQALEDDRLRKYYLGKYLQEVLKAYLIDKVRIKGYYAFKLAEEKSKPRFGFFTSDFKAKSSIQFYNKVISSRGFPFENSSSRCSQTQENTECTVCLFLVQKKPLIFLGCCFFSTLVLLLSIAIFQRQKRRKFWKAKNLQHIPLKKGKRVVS
- measurement protocol: cell-based or functional assay
# number only, unit % dropped from output

Consider the reported Emax for these binders:
Ab0460 (antibody, IgG4, V domains shown) VH: QVTLKESGPVLVKPTETLTLTCTVSGFSLTYARVGVSWIRQPPGKALEWLAHIFSNDEKSYSTSLKSRLTISKDTSKSQVVLTMTNMDPVDTATYYCARSVVTGGYYYEGMDVWGQGTTVTVSS VL: SYVLTQPPSVSVAPGQTARITCGGSNIGSESVHWYQQKPGQAPVLVVYSASDRPSGIPERFSGSNSGNTATLTISRVEAGDEADYYCQVWEGESDHVVFGGGTKLTVLG: 1050
Ab0461 (antibody, IgG4, V domains shown) VH: QVTLKESGPVLVKPTETLTLTCTVSGFSLSNARVGVSWIRQPPGKALEWLAHIFSNDEKSYSTSLKSRLTISKDTSKSQVVLTMTNMDPVDTATYYCARSVVTGGYYYEGMDVWGQGTTVTVSS VL: SYVLTQPPSVSVAPGQTARITCGGSNIGSESVHWYQQKPGQAPVLVVYEESDRPSGIPERFSGSNSGNTATLTISRVEAGDEADYYCQVWEGESDHVVFGGGTKLTVLG: 1390

Now for another entry.
Give its Emax value. Item: Ab0379 (antibody, IgG4, V domains shown) VH: QVTLKESGPVLVKPTETLTLTCTVSGFSLNNARVGVSWIRQPPGKALEWLAHIWSNDEKSYSTSLKSRLTISKDTSKSQVVLTMTNMDPVDTATYYCARSVVTGGYYYEGMDVWGQGTTVTVSS VL: CYVLTQPPSVSVAPGQTARITCGGNNIGSESVHWYQQKPGQAPVLVVDDSDRPSGIPERFSGSNSGNTATLTISRVEAGDEADYYCQVFDGNCVHVVFGGGTKLTVLG 171
